Assay: amyloid nucleation score (Sup35N fusion, yeast selection) (log enrichment); library NNK1; higher = more nucleation; inactive = no reads after selection;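 note: zero at mode of non-aggregating sequences after 7 days selection at 30°C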
metric_name: amyloid nucleation score

[[record]]
biopolymer_sequence = "LSQAASNLLSRNLVPLSWLV"
metric_name = "amyloid nucleation score"
measurement = "inactive"

[[record]]
biopolymer_sequence = "KKWHNVIGARDLSRIYSIA"
metric_name = "amyloid nucleation score"
measurement = "inactive"

[[record]]
biopolymer_sequence = "NRIRRWWTFRVLGDSQKCVD"
metric_name = "amyloid nucleation score"
measurement = 0.411


====

Assay: amyloid nucleation score (Sup35N fusion, yeast selection) (log enrichment); library NNK2; higher = more nucleation; inactive = no reads after selection
metric_name: amyloid nucleation score

[[record]]
substance = "CYCSSL"
metric_name = "amyloid nucleation score"
measurement = -0.253

[[record]]
substance = "VGYIMYIYDGYRVVFVGYYR"
metric_name = "amyloid nucleation score"
measurement = 0.217

[[record]]
substance = "MMKGRDKTGYPTTRGVMCDK"
metric_name = "amyloid nucleation score"
measurement = 0.232

[[record]]
substance = "SKYGMFILGNRSNGDWFNMV"
metric_name = "amyloid nucleation score"
measurement = -0.673

[[record]]
substance = "VSNPSGVREPATTGGQSLAI"
metric_name = "amyloid nucleation score"
measurement = 0.966

[[record]]
substance = "ADYLRDSFQRWLMEVGLDRR"
metric_name = "amyloid nucleation score"
measurement = 1.44

[[record]]
substance = "IVHYGETNG"
metric_name = "amyloid nucleation score"
measurement = 0.494

[[record]]
substance = "QIQVYMNALLTRLSSIILIF"
metric_name = "amyloid nucleation score"
measurement = -0.93

[[record]]
substance = "VKLHSVSYLIFLL"
metric_name = "amyloid nucleation score"
measurement = 4.8

[[record]]
substance = "TFGESSIVNNPYFLHESGHS"
metric_name = "amyloid nucleation score"
measurement = 0.813

[[record]]
substance = "DQLWRIRYWLLTDVGRNRIF"
metric_name = "amyloid nucleation score"
measurement = 0.343

[[record]]
substance = "YGLLGFFGMQCCHNLCMYRG"
metric_name = "amyloid nucleation score"
measurement = 2.02

[[record]]
substance = "PLYSPRVCFFGYAPKVCITH"
metric_name = "amyloid nucleation score"
measurement = -0.724

[[record]]
substance = "RKSVWYCDIFIIEYPDFSYS"
metric_name = "amyloid nucleation score"
measurement = 2.07

[[record]]
substance = "CLIAVNTKGRVVHVYGRTGG"
metric_name = "amyloid nucleation score"
measurement = 3.53

[[record]]
substance = "SEVGEGSPIDMTLARSGSVF"
metric_name = "amyloid nucleation score"
measurement = 0.913

[[record]]
substance = "RKGCWSL"
metric_name = "amyloid nucleation score"
measurement = 1.65

[[record]]
substance = "FRYFSVP"
metric_name = "amyloid nucleation score"
measurement = -0.52

[[record]]
substance = "ILIRLLGSRKQSWNYEIKVL"
metric_name = "amyloid nucleation score"
measurement = -0.645

[[record]]
substance = "SPLHKKVYKRLRLTSDTRQI"
metric_name = "amyloid nucleation score"
measurement = -0.516

[[record]]
substance = "TLVRSVQLCCGISAWNMEAR"
metric_name = "amyloid nucleation score"
measurement = 11.4

[[record]]
substance = "KLVDLKVRFDSHLDNLEVAL"
metric_name = "amyloid nucleation score"
measurement = -0.204

[[record]]
substance = "GGIFFCGIWCLVYDVSVFVA"
metric_name = "amyloid nucleation score"
measurement = 3.43

[[record]]
substance = "VLCEQHGTGKHSISAEKGHR"
metric_name = "amyloid nucleation score"
measurement = 1.44

[[record]]
substance = "WIMSVGTAKWRDGQPSACRK"
metric_name = "amyloid nucleation score"
measurement = 3.46

[[record]]
substance = "LVLTSLQHGQFVVVVSVVW"
metric_name = "amyloid nucleation score"
measurement = 0.543

[[record]]
substance = "IKMRNPSSRSSASGQQRGHV"
metric_name = "amyloid nucleation score"
measurement = 0.167

[[record]]
substance = "RTTWPHLVGSRILFYTSHSM"
metric_name = "amyloid nucleation score"
measurement = -0.392

[[record]]
substance = "PDVTGKELHF"
metric_name = "amyloid nucleation score"
measurement = 3.42

[[record]]
substance = "IEQVRDECHYTDVATLIEMM"
metric_name = "amyloid nucleation score"
measurement = 0.675

[[record]]
substance = "YKVLTSPRFKEDPFLYGCWI"
metric_name = "amyloid nucleation score"
measurement = -0.353

[[record]]
substance = "CTHNTSKVSKMVIVCPRFNL"
metric_name = "amyloid nucleation score"
measurement = 6.22

[[record]]
substance = "SSFQEC"
metric_name = "amyloid nucleation score"
measurement = -1.2

[[record]]
substance = "ARTRLALWGLQRRGSPVFDN"
metric_name = "amyloid nucleation score"
measurement = 0.157

[[record]]
substance = "TLFIMC"
metric_name = "amyloid nucleation score"
measurement = 0.074

[[record]]
substance = "GTMDITYTY"
metric_name = "amyloid nucleation score"
measurement = 2.44


These data points were gathered from the supplement of paper PMC12042874.
